# Test system: Escherichia coli
# ASSAY_REMARKS: Antibacterial activity against Escherichia coli ATTC 489 measured after overnight incubation by microtitre plate based spectrophotometric method
# Format: functional
Where a SMILES comes first, the peptide text is derived from it. Bridges are numbered along the chain shown (N, C = ends).
Here, each record is paired with measured MIC data.
Just the number please, in µM, no unit attached.

CC[C@H](C)[C@@H]1NC(=O)[C@H](CCCNC(=N)N)NC(=O)[C@H](C(C)C)NC(=O)[C@H](C)NC(=O)[C@H](C(C)C)NC(=O)[C@H]([C@@H](C)CC)NC(=O)[C@H](CC(C)C)NC(=O)[C@H](CCCNC(=N)N)NC(=O)[C@H](C(C)C)NC(=O)CC[C@@H](C(N)=O)NC(=O)[C@H](CCCNC(=N)N)NC(=O)[C@H](CCCNC(=N)N)NC(=O)[C@H](Cc2c[nH]c3ccccc23)NC1=O (VRLIVAVRIWRRE-NH2; lactam N-13) | 30.3

Looking up CCCCCCCCCCCCCCCC[N+](C)(C)Cc1ccccc1.[Cl-] [CETALKONIUM CHLORIDE] , I found its MIC recorded as 7.8

Looking up CC[C@H](C)[C@@H]1NC(=O)[C@H](CCCNC(=N)N)NC(=O)[C@H](C(C)C)NC(=O)[C@H](C)NC(=O)[C@H](C(C)C)NC(=O)[C@H]([C@@H](C)CC)NC(=O)[C@H](CC(C)C)NC(=O)[C@H](CCCNC(=N)N)NC(=O)[C@H](C(C)C)NC(=O)[C@H](CCCNC(=N)N)NC(=O)[C@H](CCCNC(=N)N)NC(=O)[C@H](Cc2c[nH]c3ccccc23)NC1=O (cyclo(AVRIWRRVRLIV)) , I found its MIC recorded as 65.8

Looking up CC[C@H](C)[C@@H]1NC(=O)[C@H](CCCNC(=N)N)NC(=O)[C@H](C(C)C)NC(=O)[C@H](C)NC(=O)[C@H](C(C)C)NC(=O)[C@H]([C@@H](C)CC)NC(=O)[C@H](CC(C)C)NC(=O)[C@H](CCCNC(=N)N)NC(=O)[C@H](C(C)C)NC(=O)[C@@H](N)CSSC[C@@H](C(N)=O)NC(=O)[C@H](CCCNC(=N)N)NC(=O)[C@H](CCCNC(=N)N)NC(=O)[C@H](Cc2c[nH]c3ccccc23)NC1=O (H-CVRLIVAVRIWRRC-NH2; disulfide 1-14) , I found its MIC recorded as 28.7

---

# Test system: Pseudomonas aeruginosa
# ASSAY_REMARKS: Antibiofilm activity against Pseudomonas aeruginosa PA14 incubated for 24 hrs under shaking condition by turbidometric method
# Type: functional
Where a SMILES comes first, the peptide text is derived from it. Bridges are numbered along the chain shown (N, C = ends).
Here, each record is paired with measured MBEC data.
Just the number please, in µM, no unit attached.

Looking up CC[C@H](C)[C@@H]1NC(=O)[C@H](CCCNC(=N)N)NC(=O)[C@H](C(C)C)NC(=O)[C@H](C)NC(=O)[C@H](C(C)C)NC(=O)[C@H]([C@@H](C)CC)NC(=O)[C@H](CC(C)C)NC(=O)[C@H](CCCNC(=N)N)NC(=O)[C@H](C(C)C)NC(=O)[C@@H](N)CSSC[C@@H](C(N)=O)NC(=O)[C@H](CCCNC(=N)N)NC(=O)[C@H](CCCNC(=N)N)NC(=O)[C@H](Cc2c[nH]c3ccccc23)NC1=O (H-CVRLIVAVRIWRRC-NH2; disulfide 1-14) , I found its MBEC recorded as 57.4

Looking up CC[C@H](C)[C@@H]1NC(=O)[C@H](CCCNC(=N)N)NC(=O)[C@H](C(C)C)NC(=O)[C@H](C)NC(=O)[C@H](C(C)C)NC(=O)[C@H]([C@@H](C)CC)NC(=O)[C@H](CC(C)C)NC(=O)[C@H](CCCNC(=N)N)NC(=O)[C@H](C(C)C)NC(=O)CC[C@@H](C(N)=O)NC(=O)[C@H](CCCNC(=N)N)NC(=O)[C@H](CCCNC(=N)N)NC(=O)[C@H](Cc2c[nH]c3ccccc23)NC1=O (VRLIVAVRIWRRE-NH2; lactam N-13) , I found its MBEC recorded as 38.8
